Origin of the recorded values: patent US10154992B2

Field: IC50. Provide a value for each of the compounds that follow.
Test system: HIV-1 provirus in U1 cells
Assay: U1 activation (latency) assay, p24 ELISA
Format: cell-based
Conditions: Human immunodeficiency virus 1; Table 5; read-out: U1 IC50

Return reported IC50 values for all items listed beneath this line.
1. CN(C)C(=O)c1ccc(-c2cncc3sc(C(N)=O)c(N)c23)cc1
2. CN(C)c1cccc(-c2cncc3sc(C(N)=O)c(N)c23)c1
3. NC(=O)c1cc2c(N3CCCCC3)cncc2s1
4. NC(=O)c1cc2c(-c3ccc4c(c3)OCCO4)cncc2s1
5. NC(=O)c1sc2cncc(N3CCCC3)c2c1N

Data returned:
1. 100 to 500 nM
2. 100 to 500 nM
3. 100 to 500 nM
4. < 100 nM
5. 100 to 500 nM

###

Experiment: MTT cell viability in parallel with the U1 assay
Assay type: cell-based
Settings: human, U1 cells; Table 5; read-out: U1 TC50
Readout label: CC50 at 3 days

// below: answered compounds
Compound	CC50 at 3 days
COc1ccc(-c2cncc3sc(C(N)=O)cc23)cc1 [drawing 129]	< 40 µM
NC(=O)c1sc2cncc(N3CCC(F)(F)CC3)c2c1N [drawing 159]	> 40 µM
COc1cc2c(cc1OC)CN(c1cncc3sc(C(N)=O)c(N)c13)CC2	< 40 µM
CNC(=O)c1ccc(-c2cncc3sc(C(N)=O)c(N)c23)cc1	> 40 µM
NC(=O)c1cc2c(-c3ccc4c(c3)CCO4)cncc2s1 [drawing 128]	< 40 µM
N#Cc1ccccc1-c1cncc2sc(C(N)=O)cc12 [drawing 164]	> 40 µM
NC(=O)c1cc2c(N3CCOCC3)cncc2s1	< 40 µM
NC(=O)c1cc2c(-c3ccc4c(c3)OCO4)cncc2s1 [drawing 137]	< 40 µM

Okay, here is my list. What is CC50 at 3 days for each of these?
1. NC(=O)c1sc2cncc(N3CCc4ccccc4C3)c2c1N
2. CN(C)c1cccc(-c2cncc3sc(C(N)=O)c(N)c23)c1
3. NC(=O)c1sc2cncc(N3CCC4(CC3)OCCO4)c2c1N [drawing 161]
4. CC(=O)N1CCN(c2cncc3sc(C(N)=O)c(N)c23)CC1 [drawing 144]
5. NC(=O)c1sc2cncc(N3CCCC(COc4ccccc4F)C3)c2c1N (stereo not shown)
6. NC(=O)c1sc2cncc(N3CCC(Oc4ccccc4)CC3)c2c1N [drawing 139]

Data returned:
1. < 40 µM
2. > 40 µM
3. > 40 µM
4. > 40 µM
5. < 40 µM
6. < 40 µM

Lab note: each compound below needs its CC50 at 3 days filled in.
1. NC(=O)c1cc2c(-c3cc4ccccc4o3)cncc2s1
2. NC(=O)c1cc2c(-c3cnc4ccccc4c3)cncc2s1
3. CN(C)c1ccnc2sc(C(N)=O)c(N)c12 [drawing 152]
4. NC(=O)c1sc2cncc(N3CCC(C(N)=O)CC3)c2c1N [drawing 158]
5. CCOc1ccc(-c2cncc3sc(C(N)=O)cc23)cc1
6. NC(=O)c1sc2cncc(N3CCc4sccc4C3)c2c1N
7. NC(=O)c1cc2c(-c3ccc4ccccc4c3)cncc2s1
8. NC(=O)c1sc2cncc(-c3ccc4c(c3)OCO4)c2c1N [drawing 157]

Data returned:
1: < 40 µM; 2: > 40 µM; 3: > 40 µM; 4: > 40 µM; 5: < 40 µM; 6: < 40 µM; 7: < 40 µM; 8: > 40 µM

###

Please provide measured CC50 at 48 h for the entries that follow.
Assay: MTT cell viability run in parallel with the Tat-hybrid assay
Assay type: cell-based
Details: human, Tat-hybrid reporter cell lines (HeLa); Table 5; read-out: Tat hybrid TC50

Molecule	Readout label	Measured
NC(=O)c1sc2cncc(-c3ccncc3)c2c1N	CC50 at 48 h	> 40 µM

Please state CC50 at 48 h for every molecule in the list that follows.
1. Cc1noc(C2CCCN(c3cncc4sc(C(N)=O)c(N)c34)C2)n1 (stereo not shown) [drawing 169]
2. COc1cc(C(=O)N2CCN(c3cncc4sc(C(N)=O)c(N)c34)CC2)ccc1C
3. NC(=O)c1sc2cncc(-c3cccc(-c4ccccc4)c3)c2c1N
4. COc1cc2c(cc1OC)CN(c1cncc3sc(C(N)=O)c(N)c13)CC2
5. COc1ccc(-c2cncc3sc(C(N)=O)cc23)cc1 [drawing 129]
6. COc1ncc(-c2cncc3sc(C(N)=O)cc23)c(OC)n1

Data returned:
< 40 µM
< 40 µM
< 40 µM
< 40 µM
< 40 µM
> 40 µM

###

Test: Aqueous solubility pH 7.4
Type: physicochemical
Settings: aqueous solution, pH 7.4, pH 7.4, aqueous buffer
Readout label: solubility (µM)
One number for each entry, in µM.

Chemical smiles	Unit of measurement	solubility
COc1ccc(-c2cncc3sc(C(N)=O)cc23)cc1	µM	0.44

Look up solubility for the entries below, preserving their order.
1. NC(=O)c1sc2cncc(N3CCCCC3)c2c1N
2. CC(=O)N1CCN(c2cncc3sc(C(N)=O)c(N)c23)CC1

Data returned:
[34, 258]

The compound `NC(=O)c1cc2c(-c3ccc4c(c3)CCO4)cncc2s1` showed solubility equal to 0.28

###

System: Jurkat cells
Assay: MTT cell viability in Jurkat replication assay
Format: cell-based
Details: Table 5; read-out: Jurkat TC50
Readout label: CC50

Compound	Readout label	Measured
NC(=O)c1sc2cncc(N3CCCCC3)c2c1N [drawing 134]	CC50	> 40 µM

Let us examine a further case.
CC50 reported for this compound NC(=O)c1cc2c(-c3ccc4c(c3)CCO4)cncc2s1 [drawing 128] : < 40 µM

###

System: HIV-1 isolate NL4-3
Test: Virus spreading / replication assay in Jurkat cells, p24 ELISA
Format: cell-based
Details: Human immunodeficiency virus 1, NL43, Jurkat; Table 5; read-out: Jurkat replication IC50
Protocol: Virus spreading assay. Jurkat (E6-1) cells (NIH AIDS Reagent Program) were cultured in RPMI media supplemented with 25 mM HEPES pH 7.4, 10% heat-inactivated fetal calf serum (Hyclone, Waltham Mass.), and 1% penicillin/streptomycin. […] Viral replication was quantified using ELISA to quantify p24 viral capsid protein in the culture supernatant. […] Toxicity was monitored using the MTT cell viability assay (Mosmann, T. (1983). J Immunol Methods 65, 55-63).
pIC50: −log10 of the molar value.
Readout label: pIC50

Worked examples, 5 compounds total:
Compound	Measurement target	Measured
NC(=O)c1sc2cncc(N3CCCCC3)c2c1N [drawing 134]	HIV-1 isolate NL4-3	> 7.00
CC(=O)N1CCN(c2cncc3sc(C(N)=O)c(N)c23)CC1 [drawing 144]	HIV-1 isolate NL4-3	< 6.30
NC(=O)c1cc2c(-c3ccc4c(c3)CCO4)cncc2s1 [drawing 128]	HIV-1 isolate NL4-3	> 7.00
NC(=O)c1cc2c(-c3cnc4ccccc4c3)cncc2s1	HIV-1 isolate NL4-3	> 7.00
NC(=O)c1cc2c(-c3ccc4ccccc4c3)cncc2s1	HIV-1 isolate NL4-3	> 7.00

Short answer on HIV-1 isolate NL4-3 for COc1ccc(-c2cncc3sc(C(N)=O)cc23)cc1 [drawing 129] , pIC50: > 7.00

###

Test system: Tat-hybrid reporter cell lines (HeLa)
Assay: MTT cell viability run in parallel with the Tat-hybrid assay
Format: cell-based
Details: Table 6; at 50,000 nM
Readout label: Tat hybrid cell viability at 50,000 nM

Example entries begin here.
Molecule	Tat hybrid cell viability at 50,000 nM
COc1ccc(-c2cc(-c3ccc(Cl)cc3)c3c(N)c(C(N)=O)sc3n2)cc1	X (X = >60%)
COc1ccc(-c2c3c(nc4sc(C(N)=O)c(N)c24)CCCC3)cc1	X (X = >60%)
Cc1cc(C)c2nc3sc(C(N)=O)c(N)c3cc2c1	X (X = >60%)
NC(=O)c1sc2nc(C(F)F)cc(-c3ccccc3)c2c1N	X (X = >60%)
N#Cc1c(N)nc2sc(C(=O)Nc3ccccc3)c(N)c2c1-c1cccs1	X (X = >60%)
COc1ccc(-c2cc(-c3ccccc3)nc3sc(C(N)=O)c(N)c23)cc1 [drawing 256]	X (X = >60%)

List the reported Tat hybrid cell viability at 50,000 nM of each molecule below.
1. COc1ccc2nc3sc(C(N)=O)c(N)c3cc2c1
2. COCc1cc(C)nc2sc(C(N)=O)c(N)c12

Data returned:
1. X (X = >60%)
2. X (X = >60%)

Dear colleague, could you send me Tat hybrid cell viability at 50,000 nM for each of the items below? Thanks.
1. COCc1cc(C)nc2sc(C(=O)Nc3cc(C)ccc3F)c(N)c12
2. NC(=O)c1sc2nccc(Nc3ccccc3)c2c1N

Data returned:
["X (X = >60%)", "Y (Y = 30-60%)"]

Lab book: Tat hybrid cell viability at 50,000 nM of `CCN(CC)C(=O)c1sc2nc(C)cc(C)c2c1N` noted as Y (Y = 30-60%)
